study system: GST-tagged recombinant full-length human Pim-2 (Homo sapiens)
Construct: GST-tagged recombinant full-length human Pim-2; GST
procedure summary: PIM-2 Assay (as Example A)
condition: averaged IC50; 4 μM ATP, 1.0 μM PIM2tide, 1.5 nM Pim-2
Where a name gives a salt, the structure may show the parent alone.
Below, each of the molecules is paired with its reported IC50 value.
metric name: IC50

- CC(C)Oc1cccc2ccc(-c3nnc4ccc([C@@H](N5CC[C@H](NCCF)C5)C(F)(F)F)cn34)nc12 [Example 81, dihydrochloride]: > 100 nM
- COc1cc2nc(-c3nnc4ccc([C@@H](N5CC[C@H](N)C5)C(F)(F)F)cn34)ccc2cc1F [Example 113, hydrochloride]: > 100 nM
- CC(C)C(=O)OCCOc1cc2nc(-c3nnc4ccc([C@@H](N5CC[C@H](N)C5)C(F)(F)F)cn34)ccc2cc1F: > 1000 nM
- COc1cc2nc(-c3nnc4ccc([C@@H](N5CC[C@H](N)C5)C(F)(F)F)cn34)ccc2cc1C [Example 138, hydrochloride]: > 100 nM
- CC(C)Oc1cccc2ccc(-c3nnc4ccc([C@H](N5CCC(C)(O)C5)C(F)(F)F)cn34)nc12 (single isomer, unassigned; diastereomer 2) [Example 207]: > 1000 nM
- N[C@H]1CCN([C@H](c2ccc3nnc(-c4ccc5cc(F)cc(O)c5n4)n3c2)C(F)(F)F)C1 [Example 163, hydrochloride]: > 100 nM
- OCC1(c2cc(F)cc3ccc(-c4nnc5ccc([C@@H](N6CC[C@H](O)C6)C(F)(F)F)cn45)nc23)CC1 [Example 126, hydrochloride]: > 100 nM
- COc1cccc2ccc(-c3nnc4ccc([C@@H](N5CC[C@](N)(CF)C5)C(F)(F)F)cn34)nc12 (single isomer, unassigned): > 100 nM
- COC[C@H](C)Oc1ccc2ccc(-c3nnc4ccc([C@@H](N5CC[C@H](N)C5)C(F)(F)F)cn34)nc2c1 [Example 150, dihydrochloride]: > 100 nM
- COC[C@@H](C)Oc1ccc2ccc(-c3nnc4ccc([C@@H](N5CC[C@H](N)C5)C(F)(F)F)cn34)nc2c1F [Example 180, dihydrochloride]: > 100 nM
- FC(F)(F)[C@H](c1ccc2nnc(-c3ccc4cccc(OCC5CC5)c4n3)n2c1)N1C[C@@H]2C[C@H]1CN2 [Example 76, dihydrochloride]: 52 nM
- CCOc1cc2nc(-c3nnc4ccc([C@@H](N5CC[C@@H](N)C5)C(F)(F)F)cn34)ccc2cc1F [Example 282, hydrochloride]: 166 nM
- CCOc1ccc2ccc(-c3nnc4ccc([C@H](N5CC[C@](C)(N)C5)C(F)(F)F)cn34)nc2c1 [Example 262, dihydrochloride]: 63 nM

====

Quick reference for IC50 among some molecules
study system: GST-tagged recombinant full-length human Pim-2 (Homo sapiens, UniProt Q9P1W9)
Construct: GST-tagged recombinant full-length human Pim-2; GST
Sequence (Q9P1W9 whole entry): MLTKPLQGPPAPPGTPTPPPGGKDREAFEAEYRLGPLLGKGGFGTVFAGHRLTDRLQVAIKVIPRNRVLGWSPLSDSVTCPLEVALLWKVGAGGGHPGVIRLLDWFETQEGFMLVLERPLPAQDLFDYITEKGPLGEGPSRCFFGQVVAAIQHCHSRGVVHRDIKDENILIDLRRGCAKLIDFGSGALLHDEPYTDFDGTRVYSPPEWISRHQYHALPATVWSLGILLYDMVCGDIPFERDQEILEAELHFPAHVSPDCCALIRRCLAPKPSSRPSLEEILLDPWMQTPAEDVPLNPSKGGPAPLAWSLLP
procedure summary: PIM-2 Assay (as Example A)
condition: averaged IC50; 4 μM ATP, 1.0 μM PIM2tide, 1.5 nM Pim-2
Structures can show the parent of a compound that is named as a salt.
metric name: IC50 (nM)

* CC(C)(C)c1cccc2ccc(-c3nnc4ccc([C@@H](N5CC[C@H](NCCO)C5)C(F)(F)F)cn34)nc12 [Example 100, dihydrochloride] | 6.5
* COc1cccc2ccc(-c3nnc4ccc([C@@H](N5CC[C@H](N)C5)C(F)(F)F)cn34)nc12 [Example 9, dihydrochloride] | 403
* CO[C@@H](C)COc1cc2nc(-c3nnc4ccc([C@@H](N5CC[C@H](N)C5)C(F)(F)F)cn34)ccc2cc1F [Example 323, di-hydrochloride] | 145

====

study system: GST-tagged recombinant full-length human Pim-2 (Homo sapiens, UniProt Q9P1W9)
Construct: GST-tagged recombinant full-length human Pim-2; GST
procedure summary: PIM-2 Assay (as Example A)
condition: averaged IC50; 4 μM ATP, 1.0 μM PIM2tide, 1.5 nM Pim-2
pIC50: −log10 of the molar value. Structures can show the parent of a compound that is named as a salt.
Below, each entry is listed alongside its reported pIC50.
metric name: pIC50

- CC(C)[C@H](N)C(=O)OCCOc1cc2nc(-c3nnc4ccc([C@@H](N5CC[C@H](N)C5)C(F)(F)F)cn34)ccc2cc1F: < 6.00
- N#Cc1cccc2ccc(-c3nnc4ccc([C@@H](N5C[C@@H]6C[C@H]5CN6)C(F)(F)F)cn34)nc12 [Example 89, dihydrochloride]: < 7.00
- C[C@H](O)COc1cccc2ccc(-c3nnc4ccc([C@@H](N5CC[C@H](N)C5)C(F)(F)F)cn34)nc12 [Example 187, dihydrochloride]: < 7.00

====

study system: PIM-1 (Homo sapiens)
Sequence (P11309 whole entry, species assumed): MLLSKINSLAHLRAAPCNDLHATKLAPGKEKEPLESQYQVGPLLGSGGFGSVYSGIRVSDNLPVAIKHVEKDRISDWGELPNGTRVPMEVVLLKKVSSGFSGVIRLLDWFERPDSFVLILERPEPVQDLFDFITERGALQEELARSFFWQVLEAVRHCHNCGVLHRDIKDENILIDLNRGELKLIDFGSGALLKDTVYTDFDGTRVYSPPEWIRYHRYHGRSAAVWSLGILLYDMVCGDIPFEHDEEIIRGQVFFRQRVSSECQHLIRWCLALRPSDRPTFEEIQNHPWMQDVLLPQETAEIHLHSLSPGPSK
Counter-ions that a name gives are not always drawn.
metric name: IC50 (nM)

• CN(C)C(=O)c1ccc2ccc(-c3nnc4ccc([C@@H](N5CC[C@H](N)C5)C(F)(F)F)cn34)nc2c1 [Example 35, dihydrochloride] = 4.52
• CC(C)(C)C(=O)Nc1ccc2ccc(-c3nnc4ccc([C@@H](N5CC[C@H](N)C5)C(F)(F)F)cn34)nc2c1 = 0.2
• CC(C)(O)COc1cc2nc(-c3nnc4ccc([C@H](N5CC[C@](C)(N)C5)C(F)(F)F)cn34)ccc2cc1F [Example 301, dihydrochloride] = 0.2
• N[C@H]1CCN([C@H](c2ccc3nnc(-c4ccc5cc(F)c(OC(F)F)cc5n4)n3c2)C(F)(F)F)C1 [Example 215, dihydrochloride] = 0.47
• CCOc1cc2nc(-c3nnc4ccc([C@@H](N5CCC(N)(CC)C5)C(F)(F)F)cn34)ccc2cc1F (single isomer, unassigned; diastereomer 1) [Example 243, dihydrochloride] = 0.54

====

study system: recombinant rat PIM-3 (Rattus norvegicus)
procedure summary: PIM-3 Assay (as Example A)
condition: averaged IC50; 30 μM ATP, 3.75 μM PIM2tide, 0.5 nM PIM-3
Counter-ions that a name gives are not always drawn.
# Lookup of reported IC50 keyed by entry
metric name: IC50 (nM)

• CCOc1cc2nc(-c3nnc4ccc([C@H](N5CCC(N)(CC)C5)C(F)(F)F)cn34)ccc2cc1F (single isomer, unassigned; diastereomer 1) [Example 251, dihydrochloride] = 0.8
• CC(C)Oc1cccc2ccc(-c3nnc4ccc([C@H](N5CC[C@](C)(N)C5)C(F)(F)F)cn34)nc12 [Example 92, dihydrochloride] = 0.8
• CC(C)c1cccc2ccc(-c3nnc4ccc([C@@H](N5CC[C@H](N)C5)C(F)(F)F)cn34)nc12 [Example 41, dihydrochloride] = 2

====

# Lookup of reported pIC50 keyed by entry
study system: PIM-1 (Homo sapiens)
pIC50: −log10 of the molar value. Counter-ions that a name gives are not always drawn.
metric name: pIC50

* COCCOc1ccc2ccc(-c3nnc4ccc([C@@H](N5C[C@@H](N)[C@H](OC)C5)C(F)(F)F)cn34)nc2c1 | 9.03
* CCOc1cc2nc(-c3nnc4ccc([C@@H](N5CC[C@H](CN)C5)C(F)(F)F)cn34)ccc2cc1F [Example 280, hydrochloride] | 9.21
* COCC(C)(C)Oc1cc(F)cc2ccc(-c3nnc4ccc([C@@H](N5CC[C@H](N)C5)C(F)(F)F)cn34)nc12 [Example 264, formate] | 9.27

====

study system: GST-tagged recombinant full-length human Pim-2 (Homo sapiens)
Construct: GST-tagged recombinant full-length human Pim-2; GST
procedure summary: PIM-2 Assay (as Example A)
condition: averaged IC50; 4 μM ATP, 1.0 μM PIM2tide, 1.5 nM Pim-2
Structures can show the parent of a compound that is named as a salt.
// reported IC50 for each item listed
metric name: IC50

* N#Cc1cccc2ccc(-c3nnc4ccc([C@@H](N5CC[C@H](N)C5)C(F)(F)F)cn34)nc12 [Example 88, dihydrochloride] | > 100 nM
* COc1cccc2ccc(-c3nnc4ccc(C(N5C[C@H](O)[C@@H](O)C5)C(F)(F)F)cn34)nc12 (stereo partly drawn) | > 1000 nM
* CCc1cccc2ccc(-c3nnc4ccc([C@@H](N5CC[C@H](N)C5)C(F)(F)F)cn34)nc12 [Example 37, dihydrochloride] | 22 nM

====

study system: GST-tagged recombinant full-length human Pim-2 (Homo sapiens)
Construct: GST-tagged recombinant full-length human Pim-2; GST
procedure summary: PIM-2 Assay (as Example A)
condition: averaged IC50; 4 μM ATP, 1.0 μM PIM2tide, 1.5 nM Pim-2
Counter-ions that a name gives are not always drawn.
# y = IC50 below 100 nM (exclusive); n = IC50 at/above 100 nM

* Cn1cc(-c2ccc3ccc(-c4nnc5ccc([C@H](N6CCC(C)(O)C6)C(F)(F)F)cn45)nc3c2)cn1 (single isomer, unassigned; diastereomer 2) [Example 201, hydrochloride] | n
* Cc1cc(F)cc2ccc(-c3nnc4ccc([C@@H](N5CC[C@H](N)C5)C(F)(F)F)cn34)nc12 [Example 184, dihydrochloride] | n
* CC(C)Oc1cc(F)cc2ccc(-c3nnc4ccc([C@H](N5CCC(C)(O)C5)C(F)(F)F)cn34)nc12 (single isomer, unassigned; diastereomer 2) [Example 203, hydrochloride] | n
* CCOc1cc2nc(-c3nnc4ccc([C@@H](N5CCC(N)(CC)C5)C(F)(F)F)cn34)ccc2cc1F (single isomer, unassigned; diastereomer 1) [Example 243, dihydrochloride] | n
* COC[C@@H](C)Oc1cccc2ccc(-c3nnc4ccc([C@@H](N5CC[C@H](N(C)C)C5)C(F)(F)F)cn34)nc12 [Example 303, dihydrochloride] | n
* CCOc1cc2nc(-c3nnc4ccc([C@@H](C)N5CC[C@H](N)C5)cn34)ccc2cc1F [Example 309, trihydrochloride] | n
* CC(C)(CO)c1cc(F)cc2ccc(-c3nnc4ccc([C@@H](N5CC[C@H](N)C5)C(F)(F)F)cn34)nc12 [Example 121, dihydrochloride] | y
* CNC(=O)c1ccc2ccc(-c3nnc4ccc([C@@H](N5CC[C@H](N)C5)C(F)(F)F)cn34)nc2c1 [Example 42, dihydrochloride] | y
* CC(C)Oc1cccc2ccc(-c3nnc4ccc(C(N5C[C@@H](O)[C@H](O)C5)C(F)(F)F)cn34)nc12 (single isomer, unassigned) | n
* CCC1(N)CCN([C@@H](c2ccc3nnc(-c4ccc5cccc(OC)c5n4)n3c2)C(F)(F)F)C1 (single isomer, unassigned; diastereomer 2) [Example 244, dihydrochloride] | y
* CO[C@@H](C)COc1ccc2ccc(-c3nnc4ccc([C@H](N5CC[C@](C)(N)C5)C(F)(F)F)cn34)nc2c1 | y
* CC(C)(C)c1cccc2ccc(-c3nnc4ccc([C@@H](N5C[C@@H](O)[C@H](O)C5)C(F)(F)F)cn34)nc12 | y
* N[C@H]1CCN(C(c2ccc3nnc(-c4ccc5cccc(OCC6CC6)c5n4)n3c2)C(F)(F)F)C1 (some centres unmarked) [Example 5, dihydrochloride] | n
* CC(C)NC(=O)c1ccc2ccc(-c3nnc4ccc([C@H](N5CC[C@H](N)C5)C(F)(F)F)cn34)nc2c1 [Example 48, dihydrochloride] | n

Attribution: patent US8889704B2
